experiment: in vivo
condition.parameters: rat, po
Overview of recorded LD50 for various compounds

compound	LD50
C[S+](C)CCOCC[S+](C)C	> 5000 mg/kg
CC(=O)Oc1ccccc1C(=O)O	1500 mg/kg

---

experiment: in vivo
condition.parameters: rat, ip

compound	LD50 [mg/kg]
CC(=O)Oc1ccccc1C(=O)O	500
C[S+](C)CCOCC[S+](C)C	1150
